Recorded values, source ChEMBL document CHEMBL1155060.

# Experiment summary: Solubility in water after 2 hrs
# Type: physicochemical
Readout: solubility at 2 h

• Cc1cc(NC(=O)c2ccc(CN3CCCC3)cc2)nn1Cc1cc(Cl)ccc1OCC(C)C.Cl = > 1000 µg/mL
• CCNCc1ccc(C(=O)Nc2cc(C)n(Cc3cc(Cl)ccc3OCC(C)C)n2)cc1.Cl = 690 µg/mL

*Q* Endpoint output: solubility at 2 h of Cc1cc(NC(=O)c2ccc(CN3CCCCC3)cc2)nn1Cc1cc(Cl)ccc1OCC(C)C.Cl . Value?
*A* > 1000 µg/mL

----------
# Experiment summary: Drug level in rat blood at 3 mg/kg, po after 3 hrs
# Format: ADME, organism-based
# Parameters: dose 3 mg/kg, route oral
# Conditions used: read-out: Drug uptake
Readout: concentration at 3 h
The reply should consist of the numeric value with the unit placed after it.

*Q* Which concentration at 3 h value is on record for CCNCc1ccc(C(=O)Nc2cc(C)n(Cc3cc(Cl)ccc3OCC(C)C)n2)cc1.Cl ?
*A* 114 nM

----------
Reported logD by item:
# Experiment summary: Lipophilicity, log D of the compound
# Assay type: physicochemical
# Conditions used: octanol/water

Worked cases, answers included:
• Cc1cc(C(=O)O)nn1Cc1cc(Cl)ccc1OCc1ccccc1 = 1
• Cc1cc(NC(=O)c2ccccc2)nn1Cc1cc(Cl)ccc1OCc1ccccc1 = > 3.7

Please look at the following molecule next.
*Q* So what does the record say about logD for Cc1cc(C(=O)Nc2ccccc2)nn1Cc1cc(Cl)ccc1OCc1ccccc1 ?
*A* > 3.7

----------
# Experiment summary: Ratio of drug level in brain to blood in rat at 10 mg/kg, po after 1 hr
# Format: ADME, organism-based
# Set-up: dose 10 mg/kg, route oral
Readout: Kp at 1 h
Respond using a number only.

* Cc1cc(NC(=O)c2ccc(CN3CCCC3)cc2)nn1Cc1cc(Cl)ccc1OCC(C)C.Cl | 1.2

*Q* Return reported Kp at 1 h; argument: CCNCc1ccc(C(=O)Nc2cc(C)n(Cc3cc(Cl)ccc3OCC(C)C)n2)cc1.Cl
*A* 0.8

----------
# Experiment summary: Solubility in fasted state simulated intestinal fluid after 1 hr
# Type: physicochemical
Readout: solubility at 1 h (µg/mL)
The reply should be a number in µg/mL, with the unit left off.

* CNCc1ccc(NC(=O)c2cc(C)n(Cc3cc(Cl)ccc3OCC(C)C)n2)cc1.Cl | 483
* CCNCc1ccc(NC(=O)c2cc(C)n(Cc3cc(Cl)ccc3OCC(C)C)n2)cc1.Cl | 812
* CNCc1ccc(NC(=O)c2cc(C)n(Cc3cc(Cl)ccc3OCc3ccccc3)n2)cc1.Cl | 57

With those in mind, consider the next compound.
*Q* Look up solubility at 1 h for this compound: Cc1cc(C(=O)Nc2ccc(CN3CCCCC3)cc2)nn1Cc1cc(Cl)ccc1OCC(C)C.Cl
*A* 164

----------
# Experiment summary: Ratio of drug level in brain to blood in rat at 5 mg/kg, po after 3 hrs
# Format: ADME, organism-based
# Set-up: dose 5 mg/kg, route oral
Readout: Kp at 3 h

*Q* Can you share its Kp at 3 h? I mean this compound: CNCc1ccc(NC(=O)c2cc(C)n(Cc3cc(Cl)ccc3OCc3ccccc3)n2)cc1.Cl
*A* 1.4

----------
# Target or system: Prostaglandin E2 receptor EP1 subtype (Homo sapiens, UniProt P34995)
# Sequence (P34995 whole entry): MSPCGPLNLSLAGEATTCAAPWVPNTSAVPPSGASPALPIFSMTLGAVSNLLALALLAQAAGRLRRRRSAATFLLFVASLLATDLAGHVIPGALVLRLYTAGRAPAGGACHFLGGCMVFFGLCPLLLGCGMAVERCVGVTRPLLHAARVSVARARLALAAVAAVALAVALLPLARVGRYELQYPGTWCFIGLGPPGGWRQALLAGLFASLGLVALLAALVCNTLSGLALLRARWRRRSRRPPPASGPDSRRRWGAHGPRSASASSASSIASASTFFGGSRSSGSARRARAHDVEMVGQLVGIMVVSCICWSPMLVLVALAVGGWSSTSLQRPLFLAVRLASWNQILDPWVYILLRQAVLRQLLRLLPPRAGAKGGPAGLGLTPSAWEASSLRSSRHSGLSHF
# Experiment summary: Displacement of [H3PGE2 from human EP1 receptor expressed in CHOK1 cells
Values of IC50 strictly less than 50 nM map to Satisfied, and values of at least 50 nM map to Not satisfied.

*Q* Please let me know if Cc1cc(NC(=O)c2cccc(CN3CCOCC3)c2)nn1Cc1cc(Cl)ccc1OCC(C)C shows IC50 below 50 nM.
*A* Not satisfied

*Q* Strictly below 50 nM in IC50? Cc1cc(NC(=O)c2ccc3c(c2)CCNC3)nn1Cc1cc(Cl)ccc1OCC(C)C
*A* Satisfied

----------
Reported CL by item:
# System: Liver microsomes
# Experiment summary: Metabolic stability assessed as intrinsic clearance in rat liver microsomes
# Type: ADME, Microsome
A number alone suffices; assume mL/min/g.

Below: 4 compounds and their reported CL.
• Cc1cc(C(=O)Nc2ccccc2)nn1Cc1cc(Cl)ccc1OCc1ccccc1 = 12
• CCNCc1ccc(C(=O)Nc2cc(C)n(Cc3cc(Cl)ccc3OCC(C)C)n2)cc1.Cl = 1.8
• Cc1cc(NC(=O)c2ccc(CN3CCCC3)cc2)nn1Cc1cc(Cl)ccc1OCC(C)C.Cl = 3.2
• Cc1cc(NC(=O)c2ccccc2)nn1Cc1cc(Cl)ccc1OCc1ccccc1 = 7.3

Could you now consider this next compound?
*Q* Entry under review: CNCc1ccc(NC(=O)c2cc(C)n(Cc3cc(Cl)ccc3OCc3ccccc3)n2)cc1.Cl . Reported CL?
*A* 1.8

----------
# Target or system: UniProt:P34995
# Experiment summary: Antagonist activity of human PGE2 receptor expressed in CHOK1 cells assessed as inhibition of intracellular calcium mobilisation by FLIPR assay
Please respond with Condition met when measured Ki is strictly beneath 100 nM, and with Condition not met in all other cases.

Recorded results for 2 compounds are shown here.
* Cc1cc(C(=O)Nc2ccc(CN3CCOCC3)cc2)nn1Cc1cc(Cl)ccc1OCc1ccccc1 | Condition met
* CNCc1ccc(NC(=O)c2cc(C)n(Cc3cc(Cl)ccc3OCc3ccccc3)n2)cc1.Cl | Condition not met

*Q* Here's an entry: Cc1cc(NC(=O)c2ccc3c(c2)CCNC3)nn1Cc1cc(Cl)ccc1OCC(C)C . Is its Ki below 100 nM?
*A* Condition not met

*Q* Field: below-cutoff. Rule: recorded Ki strictly less than 100 nM. Subject: Cc1cc(C(=O)Nc2ccc(CO)cc2)nn1Cc1cc(Cl)ccc1OCc1ccccc1
*A* Condition met

----------
# Target or system: Prostaglandin E2 receptor EP1 subtype (Homo sapiens, UniProt P34995)
# Experiment summary: Displacement of [H3PGE2 from human EP1 receptor expressed in CHOK1 cells
Please note: IC50 exactly at 10 nM is label 0. Only values below 10 nM get label 1.

Record excerpt, results attached:
* Cc1cc(NC(=O)c2ccc3c(c2)CCNCC3)nn1Cc1cc(Cl)ccc1OCC(C)C | label 0
* Cc1cc(C(=O)Nc2ccc(CN3CCCC3)cc2)nn1Cc1cc(Cl)ccc1OCC(C)C | label 1
* Cc1cc(NC(=O)c2ccccc2CO)nn1Cc1cc(Cl)ccc1OCC(C)C | label 0
* CCNCc1ccc(NC(=O)c2cc(C)n(Cc3cc(Cl)ccc3OCc3ccccc3)n2)cc1 | label 0
* Cc1cc(C(=O)Nc2ccc(CN3CCCC3)cc2)nn1Cc1cc(Cl)ccc1OCc1ccccc1 | label 0
* Cc1cc(C(=O)Nc2ccc(CNCCO)cc2)nn1Cc1cc(Cl)ccc1OCC(C)C | label 0
* CNCc1ccc(NC(=O)c2cc(C)n(Cc3cc(Cl)ccc3OCc3ccccc3)n2)cc1.Cl | label 0

*Q* I wonder whether Cc1cc(C(=O)Nc2ccc(CN3CCOCC3)cc2)nn1Cc1cc(Cl)ccc1OCC(C)C has IC50 below 10 nM. Can you tell?
*A* label 1

----------
# Experiment summary: Volume of distribution at steady state in rat at 1 mg/kg, iv
# Assay type: ADME, organism-based
# Design: dose 1 mg/kg, route intravenous
# Conditions used: in vivo, read-out: Vdss
Readout: Vd (L/kg)
The answer is to be given in L/kg; state only the numeric part.

Some solved entries appear below for comparison.
* Cc1cc(NC(=O)c2ccc(CN3CCCC3)cc2)nn1Cc1cc(Cl)ccc1OCC(C)C.Cl | 4.6
* CCNCc1ccc(C(=O)Nc2cc(C)n(Cc3cc(Cl)ccc3OCC(C)C)n2)cc1.Cl | 6.3
* CNCc1ccc(NC(=O)c2cc(C)n(Cc3cc(Cl)ccc3OCc3ccccc3)n2)cc1.Cl | 9.7

*Q* Give the measured Vd of Cc1cc(NC(=O)c2ccccc2)nn1Cc1cc(Cl)ccc1OCc1ccccc1 .
*A* 4.1

----------
# Experiment summary: Solubility in water after 1 hr
# Type: physicochemical
Readout: solubility at 1 h (µg/mL)
Report the figure in µg/mL without appending any unit label.

Use these answered entries as a reference point.
• CNCc1ccc(NC(=O)c2cc(C)n(Cc3cc(Cl)ccc3OCc3ccccc3)n2)cc1.Cl = 253
• CNCc1ccc(NC(=O)c2cc(C)n(Cc3cc(Cl)ccc3OCC(C)C)n2)cc1.Cl = 474
• Cc1cc(C(=O)Nc2ccc(CN3CCCCC3)cc2)nn1Cc1cc(Cl)ccc1OCC(C)C.Cl = 811

*Q* Record request: solubility at 1 h value, item Cc1cc(C(=O)Nc2ccc(CN3CCCCC3)cc2)nn1Cc1cc(Cl)ccc1OCc1ccccc1.Cl
*A* 373
